Below: a set of entries, each annotated with reported growth inhibition.
# PROTOCOL DESCRIPTION: NCI Yeast Anticancer Drug Screen. Data for the mlh1 rad18 strain (AID 175)
# PROTOCOL CONDITIONS: S. cerevisiae mlh1 rad18 strain growth inhibition; at 50.0 µM; stronger effect = higher value
This is part of a sample that, as a whole, favours compounds with a hit. Of some 79,000 tested, about 15% had one in any assay. Where a SMILES comes first, the peptide text is derived from it. [ ]: non-standard residue; d: D form. The star is where a group is joined. Cbz = O=C(OCc1ccccc1)*; Nva = CCC[CH](N)C(=O)O
ASSAY METRIC: growth inhibition (%)

>>> recorded_value("CC1(C)N=C(N)N=C(N)N1c1cccc(OCc2cccc([N+](=O)[O-])c2)c1")
-14.8
>>> recorded_value("CCCC(NC(=O)OCc1ccccc1)C(=O)NC(C(=O)O)C(C)CC (stereo not given) (Cbz-[Nva]-Ile-OH; configuration not given here)")
9.6
>>> recorded_value("CC(=O)Oc1ncnc2c1cnn2C")
-3.3
>>> recorded_value("CC(=O)OCC(=O)C1(O)CCC2C3CCC4CC(=O)CCC4(C)C3C(=O)CC21C (stereo not given)")
9.4
>>> recorded_value("Cc1nc(-c2nc(C(=O)NCCC[S+](C)C)cs2)cs1")
-0.2
>>> recorded_value("CCCCC(Sc1cc(Cl)c(C)cc1S(=O)(=O)Nc1n[nH]c(N)n1)C(=O)OC (stereo not given)")
5.75
>>> recorded_value("c1ccc(N=C2N=c3ccccc3=C2c2c(Nc3ccccc3)[nH]c3ccccc23)cc1")
17.6
>>> recorded_value("CCOC(=O)C(NC(=O)c1ccccc1)(N1CCN(c2cc3c(cc2F)c(=O)c(C(=O)O)cn3CC)CC1)C(F)(F)F (stereo not given)")
-20.8
>>> recorded_value("COc1ccc(C2=Nn3c(nc4sc(-c5ccccc5)cc4c3=O)SC2)cc1")
-16
>>> recorded_value("CC(=O)NCc1cc2c3c(c1)CCCN3CCC2")
-4.8

----------
# PROTOCOL DESCRIPTION: NCI Yeast Anticancer Drug Screen. Data for the mec2-1 strain (AID 157)
# PROTOCOL CONDITIONS: S. cerevisiae mec2-1 strain, at 50.0 µM
Compounds without any hit were thinned out: in the full panel of roughly 79,000, 15% have a hit. Calls of active or inactive are those of the source. Cut-off read from the data, not from the text of the source: active = growth inhibition above about 70%; inactive = the rest.
Classes used: active, inactive

>>> class_assignment("CC(=O)OC(CC1(C)C(C)CCC23COC(=O)C2=CCCC31)c1ccoc1 (configuration not stated)")
"active"
>>> class_assignment("CC[N+](CC)=c1ccc2nc3c(cc(Nc4ccccc4)c4ccccc43)oc-2c1.[Cl][Zn][Cl]")
"inactive"
>>> class_assignment("CCOC(=O)CC1(C)SCCN1C(N)=O (configuration not stated)")
"inactive"
>>> class_assignment("COc1ccc(CCCNC(=O)Cc2ccccc2CO)cc1OC")
"inactive"
>>> class_assignment("CCCCCN(CCCCC)CC(O)c1ccc2cc3c(nc2c1)CCCC3 (configuration not stated)")
"inactive"
>>> class_assignment("COc1ccc(C(=O)CC(c2ccccc2)[C@H]2C(c3ccc(OC)cc3)=Nc3c(nc(SC)n(C)c3=O)NC2c2ccccc2)cc1 (some centres not stated)")
"inactive"
>>> class_assignment("Cn1cnc([N+](=O)[O-])c1Sc1ccccc1N")
"inactive"
>>> class_assignment("CON(C)C(C#N)=C(C#N)C#N")
"inactive"
>>> class_assignment("CN(C)C(=O)OCC1COc2ccccc2O1 (configuration not stated)")
"inactive"
>>> class_assignment("CN(C)NC(=S)Nc1ccccc1")
"inactive"
>>> class_assignment("CC(=O)OCCc1nnnn1C")
"inactive"
>>> class_assignment("c1ccc2c(c1)Nc1nc3ccccc3nc1N2")
"inactive"
>>> class_assignment("CCCC1(C(=O)O)NC(=O)NC1=O (configuration not stated)")
"inactive"
>>> class_assignment("COCCCNC(=O)C1C(=O)N(CCCOC)C(=O)/C1=N\\N (configuration not stated)")
"inactive"
>>> class_assignment("CC(=O)OC1CCC2(C)C3=C(C(=O)CC2C1(C)C)C1(C)CCC(C(C)CCCC(C)C)C1(C)CC3 (configuration not stated)")
"inactive"
>>> class_assignment("CCCCn1cnc2c(SCc3ccc(Cl)cc3Cl)nc(N)nc21")
"inactive"
>>> class_assignment("CCCC1c2c(cc(=O)[nH]c2O)C(=O)N1Cc1ccccc1 (configuration not stated)")
"inactive"
>>> class_assignment("CC(=O)CCCCc1ccccc1")
"inactive"
>>> class_assignment("COc1ccccc1NC(=O)C(Cc1ccccc1)NC(C)=O (configuration not stated)")
"inactive"
>>> class_assignment("COc1cc(OC)c([N+](=O)[O-])cc1/C=C/C(=O)O")
"inactive"
>>> class_assignment("NNC(=O)c1oc2ccccc2c1CN(CCO)CCO")
"inactive"
>>> class_assignment("Cn1c(=O)c2c(-c3ccccc3)onc2n(C)c1=O")
"inactive"
>>> class_assignment("CC1CC[P+](C)(Cc2ccccc2)C1 (mixture of isomers)")
"inactive"
>>> class_assignment("Nc1nc2c(-c3ccc([N+](=O)[O-])cc3)nnn2c2ccccc12")
"inactive"
>>> class_assignment("CCCCCCCCCCCCCCCCOc1ccc(/C=N/Nc2ccccc2)cc1OC")
"inactive"
>>> class_assignment("COc1cccc(CSCC(=O)O)c1")
"inactive"
>>> class_assignment("Cc1nc(Nc2ccc(Cl)c(Cl)c2)sc1C(/C=C/c1ccc2c(c1)OCO2)=N/Nc1ccc([N+](=O)[O-])cc1[N+](=O)[O-]")
"inactive"
>>> class_assignment("O=C(OCc1ccccc1)c1ccccc1-c1c2ccc(=O)cc-2oc2cc(OCc3ccccc3)ccc12")
"inactive"
>>> class_assignment("CCOC(=O)c1c(/N=C/c2cc(Br)ccc2O)sc2c1CCCC2")
"inactive"
>>> class_assignment("NS(=O)(=O)c1ccc(NCc2cnc3ccccc3c2)cc1")
"inactive"
>>> class_assignment("CCOC(=O)c1ccc(N=Nc2ccc(N(CCC#N)CCC#N)cc2C)cc1")
"inactive"
>>> class_assignment("COc1cc(C(C#N)NNC(=O)c2ccccc2O)ccc1O (configuration not stated)")
"inactive"
>>> class_assignment("O=S(=O)(O)c1cc2nonc2c2ccccc12")
"inactive"
>>> class_assignment("Cc1ccc(C)c2c(Cl)c3c(C)ccc(C)c3nc12")
"inactive"
>>> class_assignment("CC(=O)N(/C=C\\C1=[N+](C)CCS1)c1ccccc1")
"inactive"
>>> class_assignment("O=C(N=C1SCCS1)Nc1cccc(Cl)c1")
"inactive"
>>> class_assignment("Cc1nc2ccccc2nc1CC(O)(c1ccccc1)c1cccc2ccccc12 (configuration not stated)")
"inactive"
>>> class_assignment("CCCc1ccccc1[N+](=O)[O-]")
"inactive"
>>> class_assignment("O=C(O)C/C(=C\\c1ccccc1)C(=O)O")
"inactive"
>>> class_assignment("CC(=O)OC1[C@H](OC(C)=O)C2=C(C)[C@@H](OC(C)=O)C[C@@]2(C(C)(C)O)[C@@H](OC(C)=O)[C@H]2[C@@]1(C)[C@@H](OC(C)=O)CC(OC(C)=O)[C@]21CO1 (some centres not stated)")
"inactive"
>>> class_assignment("COC(=O)N/N=C(\\C)C(CN1CCCCC1)C(C1=C(O)c2ccccc2OC1)c1ccccc1 (configuration not stated)")
"inactive"
>>> class_assignment("O=C(O)Cc1ccc(-c2ccccc2)[nH]1")
"inactive"
>>> class_assignment("C1=C(c2ccccc2)Cc2ccccc21")
"inactive"
>>> class_assignment("ClC(Cl)(Cl)C(c1ccc(Br)cc1)c1ccc(Br)cc1")
"inactive"
>>> class_assignment("Clc1ccc(OCc2nnc3n2N=C(c2ccc(Br)cc2)CS3)cc1")
"inactive"
>>> class_assignment("Nc1c(Cl)ncnc1NCCCCCCCCCCCCNc1ncnc(Cl)c1N")
"inactive"
>>> class_assignment("CC(C)C(CC(=O)O)C(=O)O (configuration not stated)")
"inactive"

----------
# PROTOCOL DESCRIPTION: NCI Yeast Anticancer Drug Screen. Data for the mlh1 rad18 strain (AID 175)
# PROTOCOL CONDITIONS: S. cerevisiae mlh1 rad18 strain growth inhibition; at 50.0 µM; stronger effect = higher value
This is part of a sample that, as a whole, favours compounds with a hit. Of some 79,000 tested, about 15% had one in any assay.
ASSAY METRIC: growth inhibition (%)

>>> recorded_value("CC(C)CCCC(C)C1CCC2C3C=C(C(=O)O)C(C)(CCC(=O)O)C3CCC12C (stereo unspecified)")
44.1
>>> recorded_value("CCOC(=O)CCCCCCC(=O)OCC")
23.4
>>> recorded_value("O=C(Nc1cccc(Cc2cccc(NC(=O)c3ccccc3)c2)c1)c1ccccc1")
-0.35
>>> recorded_value("N=c1nnc2ccc(Cl)cc2n1O")
-5.25
>>> recorded_value("O=COC1CCCCCC1")
12.9
>>> recorded_value("CC1=C(C(=O)Nc2ccccc2C)C(c2ccco2)C(C(=O)Nc2ccccc2C)=C(C)N1C")
-8.8
